Values compiled from ChEMBL document CHEMBL3885861.

Organism: Rattus norvegicus
test: Open TG-GATES - Regimen: Single
Assay type: toxicity, organism-based, Sprague-Dawley
Parameters: regimen Single, gender Male, age 6 weeks
runConditions: in vivo, po, 0 mg/kg, 3 h, tissue Blood, route gavage, dose level Control
Reported Bas values are given for each entry in this list.
Just the number please, in %, no unit attached.

COc1cc([C@@H]2c3cc4c(cc3[C@@H](O[C@@H]3O[C@@H]5CO[C@@H](C)O[C@H]5[C@H](O)[C@H]3O)[C@H]3COC(=O)[C@H]23)OCO4)cc(OC)c1O [ETOPOSIDE]    0
C#C[C@]1(O)CC[C@H]2[C@@H]3CCC4=Cc5oncc5C[C@]4(C)[C@H]3CC[C@@]21C [DANAZOL]    0
CC(CN1c2ccccc2Sc2ccccc21)N(C)C (stereo not given) [PROMETHAZINE]    0

# Bas (molecule: CC(=O)Nc1nnc(S(N)(=O)=O)s1 [ACETAZOLAMIDE] ) is 0

# Bas (molecule: C1CCC(C(CC2CCCCN2)C2CCCCC2)CC1 (stereo not given) [PERHEXILINE] ) is 0

# Bas (molecule: CN(C)[C@@H]1C(O)=C(C(N)=O)C(=O)[C@@]2(O)C(O)=C3C(=O)c4c(O)cccc4[C@@](C)(O)[C@H]3C[C@@H]12 [TETRACYCLINE] ) is 0

# Bas (molecule: "CCOC(=O)[C@H](CCc1ccccc1)N[C@@H](C)C(=O)N1CCC[C@H]1C(=O)O" ) is 0

# Bas (molecule: Cc1cccc(Nc2ccccc2C(=O)O)c1C [MEFENAMIC ACID] ) is 0

# Bas (molecule: Clc1c(Cl)c(Cl)c(Cl)c(Cl)c1Cl [PERCHLOROBENZENE] ) is 0.2

# Bas (molecule: CN1C(C(=O)Nc2ccccn2)=C(O)c2sc(Cl)cc2S1(=O)=O [LORNOXICAM] ) is 1
